Please provide measured Euclidean distance for the entries that follow.
Test system: A549
MEASUREMENT DESCRIPTION: Euclidean distance of Cell Painting phenotypic profile (signed KS, 77 features) to DMSO centroid (dimensionless distance); 5 or 10 uM (library dependent); higher = stronger phenotypic change vs DMSO (phenoactivity)
CONDITIONS USED: 48 h
Where a name gives a salt, the structure may show the parent alone.
Answer as a number with no unit attached.

Identify Euclidean distance associated with the compound Cn1c(Cn2ccc(C(F)(F)F)c(Oc3cc(Cl)cc(C#N)c3)c2=O)n[nH]c1=O
0.8

Answer with the recorded Euclidean distance of CCCc1nc(C)c2c(=O)nc(-c3cc(S(=O)(=O)N4CCN(CC)CC4)ccc3OCC)[nH]n12 [Vardenafil HCl Trihydrate] only.
0.732

Identify Euclidean distance associated with the compound NC(=O)c1cccnc1 [Nicotinamide (Vitamin B3)]
0.597

Identify Euclidean distance associated with the compound O=P(O)(O)C(O)(Cn1ccnc1)P(=O)(O)O
1.23

Supply measured Euclidean distance of COc1cc(C(=O)NC2CCCNC2)cc(OC)c1OC (centres undefined) [Troxipide] in your reply.
1.12

Tell me measured Euclidean distance for O=C(/C=C/c1ccc(O)cc1)c1ccc(O)cc1O please.
1.2

Quickly give me recorded Euclidean distance for Nc1ccccc1NC(=O)c1ccc(CNc2nccc(-c3cccnc3)n2)cc1
3.33

Complete the entry with Euclidean distance for CCCC(=O)Nc1cccc(NC(=O)c2ccccc2Br)c1
1.02

Quickly give me recorded Euclidean distance for O=C1CC[C@H](N2Cc3c(OCc4ccc(CN5CCOCC5)cc4)cccc3C2=O)C(=O)N1 [Iberdomide(CC220)]
1.02
